target system: human A3 receptors (Homo sapiens, UniProt P0DMS8)
Construct: expressed in transfected cells; host or cells: HEK-293 cells, stably transfected; membrane preparation
Sequence (P0DMS8 1-318): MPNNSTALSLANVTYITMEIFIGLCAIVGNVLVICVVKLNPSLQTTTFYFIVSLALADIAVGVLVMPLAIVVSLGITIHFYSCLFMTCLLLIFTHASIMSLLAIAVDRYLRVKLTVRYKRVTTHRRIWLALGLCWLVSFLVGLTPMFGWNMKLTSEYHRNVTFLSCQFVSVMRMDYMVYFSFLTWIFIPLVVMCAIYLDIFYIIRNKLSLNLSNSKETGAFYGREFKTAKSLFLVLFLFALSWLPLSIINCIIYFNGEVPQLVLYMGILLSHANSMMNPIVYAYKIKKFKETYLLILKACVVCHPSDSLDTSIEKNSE
run description: Adenosine receptor binding assay ([3H]HEMADO competition)
condition context: Table 2, membranes of HEK-293 cells expressing human A3 receptor, Cheng-Prusoff, read-out: hA3 Ki
attribute measured: Ki (nM)

A = O[C@H]1[C@H](n2cnc3c4[nH]c(C(F)F)cc4c(Cl)nc32)[C@H]2CC2[C@H]1O (stereo partly shown) [24A*]
B = CNC(=O)[C@@]12C[C@@H]1[C@@H](n1cnc3c4c(c(Cl)nc31)CC(C)N4)[C@H](O)[C@@H]2O (stereo partly shown) [5A*]
C = CNC(=O)[C@H]1O[C@@H](n2cnc3c4[nH]c(C)cc4c(Cl)nc32)[C@H](O)[C@@H]1O [1A*]
D = CC1CC(=O)c2c(Cl)nc3c(ncn3[C@@H]3[C@@H](O)[C@@H](O)[C@@]4(CO)C[C@@H]34)c2N1 (stereo partly shown) [13A*]
Ranking request: Ki, max to min, items above. Return value: ordered labels per request. D, B, C, A
(D: 24.1 nM, B: 3.84 nM, C: 1.79 nM, A: 0.916 nM)

---

target system: human A3 receptors (Homo sapiens)
Construct: expressed in transfected cells; host or cells: HEK-293 cells, stably transfected; membrane preparation
run description: Adenosine receptor binding assay ([3H]HEMADO competition)
condition context: Table 1, membranes of HEK-293 cells expressing human A3 receptor, Cheng-Prusoff, read-out: hA3 Ki
attribute measured: Ki (nM)

Below, each entry is followed by its recorded Ki result.
compound	target system	Ki, nM
Cn1nnc([C@@]23C[C@@H]2[C@@H](n2cnc4c5[nH]c(C=O)cc5c(Cl)nc42)[C@H](O)[C@@H]3O)n1	human A3 receptors (Homo sapiens)	2.72
O[C@H]1[C@H](n2cnc3c(NCc4cc(Cl)ccc4Cl)cc(Cl)nc32)[C@H]2C[C@@]2(c2ncc[nH]2)[C@H]1O	human A3 receptors (Homo sapiens)	38.6
N#Cc1cc(NCc2cc(Cl)ccc2Cl)c2ncn([C@H]3[C@H](O)[C@H](O)[C@]4(c5ncc[nH]5)C[C@H]34)c2n1	human A3 receptors (Homo sapiens)	12.1

a = CCNc1cc(Cl)nc2c1ncn2[C@H]1[C@H](O)[C@H](O)[C@]2(c3ncc[nH]3)C[C@H]12 [Compound 12B]
b = O[C@H]1[C@H](n2cnc3c(NCC(F)F)cc(Cl)nc32)[C@H]2C[C@@]2(c2ncn[nH]2)[C@H]1O [Compound 14B]
Which shows the larger Ki value: a or b ? Lab note: record the label of whichever item you select. a

P = CCNc1cc(Cl)nc2c1ncn2[C@H]1[C@H](O)[C@H](O)[C@]2(c3ncco3)C[C@H]12 [Compound 10B]
Q = Cc1cc2c(Cl)nc3c(ncn3[C@H]3[C@H](O)[C@H](O)[C@]4(c5ncnn5C)C[C@H]34)c2[nH]1
Pick one: P or Q . Which one has the lower reported Ki? Lab note: record the label of whichever item you select. P

a = Cc1cc2c(Cl)nc3c(ncn3[C@H]3[C@H](O)[C@H](O)[C@]4(c5ncc[nH]5)C[C@H]34)c2[nH]1
b = Cn1nnc([C@@]23C[C@@H]2[C@@H](n2cnc4c5[nH]c(CO)cc5c(Cl)nc42)[C@H](O)[C@@H]3O)n1
c = Cn1nnc([C@@]23C[C@@H]2[C@@H](n2cnc4c5[nH]c(C(F)F)cc5c(Cl)nc42)[C@H](O)[C@@H]3O)n1
Sort the 3 compounds by Ki; largest first, smallest last. Return value: ordered labels per request. a, b, c

P = Cc1cc2c(Cl)nc3c(ncn3[C@H]3[C@H](O)[C@H](O)[C@]4(c5ncn(C)n5)C[C@H]34)c2[nH]1
Q = CCNc1cc(Cl)nc2c1ncn2[C@H]1[C@H](O)[C@H](O)[C@]2(c3nnn(C)n3)C[C@H]12 [Compound 13B]
Pick one: P or Q . Which one has the lower reported Ki? Lab note: record the label of whichever item you select. P
(P: 1.24 nM, Q: 2.1 nM)

---

target system: human adenosine A3 receptor (Homo sapiens, UniProt P0DMS8)
Construct: expressed in transfected cells; host or cells: CHO-K1 cells, stably transfected
Sequence (P0DMS8 1-318): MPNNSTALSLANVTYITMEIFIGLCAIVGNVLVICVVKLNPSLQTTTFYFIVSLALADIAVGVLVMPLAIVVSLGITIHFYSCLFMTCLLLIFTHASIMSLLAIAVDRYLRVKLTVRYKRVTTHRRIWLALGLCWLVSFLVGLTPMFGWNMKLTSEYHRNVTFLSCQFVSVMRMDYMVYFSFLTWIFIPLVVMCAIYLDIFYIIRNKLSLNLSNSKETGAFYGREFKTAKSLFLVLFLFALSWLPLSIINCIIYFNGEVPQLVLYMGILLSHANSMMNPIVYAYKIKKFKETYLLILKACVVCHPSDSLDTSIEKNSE
run description: Intracellular cAMP levels (inhibition of forskolin-stimulated cAMP production)
Format: cell-based
condition context: Table 2; maximal response as percentage of the response produced by 100 nM IB-MECA; # = average between two data points
attribute measured: cAMP Efficacy (%)

Below, each entry is followed by its recorded cAMP Efficacy (%) result.
compound	cAMP Efficacy (%)
Cc1cc2c(Cl)nc3c(ncn3[C@@H]3O[C@H](CO)[C@@H](O)[C@H]3O)c2[nH]1	102.76
CC1Cc2c(Cl)nc3c(ncn3[C@H]3[C@H](O)[C@H](O)C4C[C@@H]43)c2N1 (stereo partly drawn) [12A*]	63.56
Cc1cc2cnc3c(ncn3[C@H]3[C@H](O)[C@H](O)C4C[C@@H]43)c2[nH]1 (stereo partly drawn) [14A*]	87.04
CNC(=O)[C@@]12C[C@@H]1[C@@H](n1cnc3c4c(c(Cl)nc31)CC(C)N4)[C@H](O)[C@@H]2O (stereo partly drawn)	105.62
CC1CCc2c(Cl)nc3c(ncn3[C@H]3[C@H](O)[C@H](O)C4C[C@@H]43)c2N1 (stereo partly drawn) [16A*]	55.74

P = CNC(=O)[C@@]12C[C@@H]1[C@@H](n1cnc3c4c(c(Cl)nc31)CCC(C)N4)[C@H](O)[C@@H]2O (stereo partly drawn) [10A*]
Q = Cc1cc2c(C#CC3CC3)nc3c(ncn3[C@H]3[C@H](O)[C@H](O)C4C[C@@H]43)c2[nH]1 (stereo partly drawn)
Which shows the larger cAMP Efficacy (%) value: P or Q ? Lab note: record the label of whichever item you select. P
(P: 105.25%, Q: 47.98%)

P = CNC(=O)[C@@]12C[C@@H]1[C@@H](n1cnc3c4c(c(Cl)nc31)C(O)CC(C)N4)[C@H](O)[C@@H]2O (stereo partly drawn)
Q = O[C@H]1[C@H](n2cnc3c4[nH]c(Cc5ccccc5)cc4c(Cl)nc32)[C@H]2CC2[C@H]1O (stereo partly drawn)
R = Cc1cc2c(Cl)nc3c(ncn3[C@H]3[C@H](O)[C@H](O)[C@]4(C#N)C[C@H]34)c2[nH]1 [26A*]
Sort the 3 compounds by cAMP Efficacy (%); largest first, smallest last. Return value: ordered labels per request. P, Q, R
(P: 107.96%, Q: 74.92%, R: 5%)

---

target system: human adenosine A3 receptor (Homo sapiens, UniProt P0DMS8)
Construct: expressed in transfected cells; host or cells: CHO-K1 cells, stably transfected
run description: Intracellular cAMP levels (inhibition of forskolin-stimulated cAMP production)
Assay type: cell-based
condition context: Table 2; CHO-K1 cells expressing human adenosine A3 receptor, forskolin 10 μM; # = average between two data points
attribute measured: EC50 (nM)

A = Cc1cc2c(C#CC3CC3)nc3c(ncn3[C@H]3[C@H](O)[C@H](O)C4C[C@@H]43)c2[nH]1 (stereo partly shown) [7A*]
B = CNC(=O)[C@@]12C[C@@H]1[C@@H](n1cnc3c4c(c(Cl)nc31)C(O)CC(C)N4)[C@H](O)[C@@H]2O (stereo partly shown) [8A* and 8B*]
C = Cc1cc2c(Cl)nc3c(ncn3[C@H]3[C@H](O)[C@H](O)[C@]4(C#N)C[C@H]34)c2[nH]1 [26A*]
D = O[C@H]1[C@H](n2cnc3c4[nH]c(Cc5ccccc5)cc4c(Cl)nc32)[C@H]2CC2[C@H]1O (stereo partly shown) [9A*]
Sort by EC50 with smallest numbers at the start of the list. Return value: ordered labels per request. A, D, B, C
(A: 0.91 nM, D: 2.15 nM, B: 6 nM, C: 100 nM)

The origin of these recorded values is patent US20260008805A1.
